Listed compounds paired with reported inhibition at 1 µM
biological target: sigma 1 (h) (Homo sapiens); construct: endogenous; endogenous in cells; host or cells: Jurkat cells; assay: sigma 1 (h) agonist radioligand binding assay ([3H](+)pentazocine); details: Sigma 1 Receptor; 1.00E−06 M; 1st; read-out: % Inhibition of Control Specific Binding, 1st

givenSmiles | unitLabel | inhibition at 1 µM
O=C1CSCc2ccccc2N1CCCCN1CCC2(CC1)OCc1ccccc12 | % | 93.6
O=C1COCc2ccccc2N1CCCCN1CCC2(CC1)OCc1ccccc12 | % | 97.9
O=C1COCc2ccccc2N1CCCCN1CCN(c2cccc(Cl)c2)CC1 | % | 93.8

* * *

target: dopamine transporter (h) (Homo sapiens); construct: expressed in transfected cells; host or cells: CHO cells; assay: dopamine transporter (h) antagonist radioligand binding assay ([3H]BTCP); settings: 1.00E−06 M, 2nd, read-out: % Inhibition of Control Specific Binding, 2nd
Sequence (Q01959 whole entry): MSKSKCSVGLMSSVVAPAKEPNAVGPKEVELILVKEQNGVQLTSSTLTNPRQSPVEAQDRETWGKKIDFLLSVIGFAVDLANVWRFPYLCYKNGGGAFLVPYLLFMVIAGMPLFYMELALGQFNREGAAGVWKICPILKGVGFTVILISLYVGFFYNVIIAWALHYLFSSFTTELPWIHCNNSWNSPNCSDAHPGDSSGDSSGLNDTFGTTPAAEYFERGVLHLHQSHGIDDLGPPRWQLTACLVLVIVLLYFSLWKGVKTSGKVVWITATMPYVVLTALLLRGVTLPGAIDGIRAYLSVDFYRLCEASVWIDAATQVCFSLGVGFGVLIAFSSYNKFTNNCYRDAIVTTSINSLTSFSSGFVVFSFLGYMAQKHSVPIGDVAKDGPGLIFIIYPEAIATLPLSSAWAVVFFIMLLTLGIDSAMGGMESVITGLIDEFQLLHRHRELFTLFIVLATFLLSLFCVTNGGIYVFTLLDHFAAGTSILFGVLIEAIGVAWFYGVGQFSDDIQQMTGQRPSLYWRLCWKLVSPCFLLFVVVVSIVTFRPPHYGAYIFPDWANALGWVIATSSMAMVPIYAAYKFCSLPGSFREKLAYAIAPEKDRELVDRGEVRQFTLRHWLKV
Listed compounds paired with reported inhibition at 1 µM

givenSmiles | unitLabel | inhibition at 1 µM
O=C1CSCc2ccccc2N1CCCCN1CCN(c2ccccc2Cl)CC1 | % | 4.3
O=C1CCCc2ccccc2N1CCCCN1CCN(c2ccc(Cl)cc2)CC1 | % | 23.2
O=C1CSCc2ccccc2N1CCCCN1CCN(c2cccc(Cl)c2)CC1 | % | 27.6

* * *

biological target: sigma 2 (h) (Homo sapiens); construct: endogenous; endogenous in cells; host or cells: Jurkat cells; assay: sigma 2 (h) agonist radioligand binding assay ([3H]DTG); conditions: Sigma 2 Receptor; 1.00E−06 M; 1st; read-out: % Inhibition of Control Specific Binding, 1st
Sequence (Q5BJF2 whole entry): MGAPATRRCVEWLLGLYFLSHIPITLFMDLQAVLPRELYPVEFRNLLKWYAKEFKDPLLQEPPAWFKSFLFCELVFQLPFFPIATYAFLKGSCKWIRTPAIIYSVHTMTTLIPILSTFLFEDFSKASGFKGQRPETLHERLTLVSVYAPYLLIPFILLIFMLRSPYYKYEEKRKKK
Kind request: treat 90% as inclusive, so inhibition at 1 µM at 90% or higher is criterion met, anything lower is criterion not met.

givenSmiles | discreteLabel
O=C1CSCc2ccccc2N1CCCCN1CCC2(CC1)OCc1ccccc12 | criterion met
O=C1CCCc2ccccc2N1CCCCN1CCN(c2ccc(Cl)cc2)CC1 | criterion not met
O=C1CSCc2ccccc2N1CCCCN1CCN(c2ccccc2Cl)CC1 | criterion not met
O=C1CSCc2ccccc2N1CCCCN1CCN(c2ccc(Cl)cc2)CC1 | criterion met
O=C1CSCc2ccccc2N1CCCCN1CCN(c2cccc(Cl)c2)CC1 | criterion not met
O=C1COCc2ccccc2N1CCCCN1CCC2(CC1)OCc1ccccc12 | criterion met
O=C1COCc2ccccc2N1CCCCN1CCN(c2cccc(Cl)c2)CC1 | criterion met
O=C1CCCc2ccccc2N1CCCCN1CCN(c2cccc(Cl)c2)CC1 | criterion met
O=C1COCc2ccccc2N1CCCCN1CCN(c2ccc(Cl)cc2)CC1 | criterion not met
O=C1CCCc2ccccc2N1CCCCN1CCN(c2ccccc2Cl)CC1 | criterion met

* * *

target: sigma 2 (h) (Homo sapiens); construct: endogenous; endogenous in cells; host or cells: Jurkat cells; test: sigma 2 (h) agonist radioligand binding assay ([3H]DTG); details: Sigma 2 Receptor; 1.00E−06 M; read-out: % Inhibition of Control Specific Binding, 3rd
readout: inhibition at 1 µM (%)

molecule | unitLabel | observedMeasurement
O=C1CCCc2ccccc2N1CCCCN1CCN(c2ccc(Cl)cc2)CC1 | % | 84.4
O=C1COCc2ccccc2N1CCCCN1CCN(c2ccc(Cl)cc2)CC1 | % | 80.2
O=C1CCCc2ccccc2N1CCCCN1CCC2(CC1)OCc1ccccc12 | % | 95.3
O=C1COCc2ccccc2N1CCCCN1CCN(c2cccc(Cl)c2)CC1 | % | 97.4
O=C1CSCc2ccccc2N1CCCCN1CCN(c2cccc(Cl)c2)CC1 | % | 94.4
O=C1CSCc2ccccc2N1CCCCN1CCC2(CC1)OCc1ccccc12 | % | 102
Cn1c(=O)n(CCCCN2CCC3(CC2)OCc2ccccc23)c2ccccc21 [CM699, reference compound] | % | 92

* * *

target: sigma 1 (h) (Homo sapiens, UniProt Q99720); construct: endogenous; endogenous in cells; host or cells: Jurkat cells; assay: sigma 1 (h) agonist radioligand binding assay ([3H](+)pentazocine); details: Sigma 1 Receptor; 1.00E−06 M; 2nd; read-out: % Inhibition of Control Specific Binding, 2nd
Sequence (Q99720 whole entry): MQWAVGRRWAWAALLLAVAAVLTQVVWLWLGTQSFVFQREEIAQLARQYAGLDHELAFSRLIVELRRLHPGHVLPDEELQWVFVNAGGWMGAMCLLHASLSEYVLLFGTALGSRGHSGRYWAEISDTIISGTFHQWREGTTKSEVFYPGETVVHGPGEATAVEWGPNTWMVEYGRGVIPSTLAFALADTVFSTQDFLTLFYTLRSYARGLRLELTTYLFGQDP
Listed molecules paired with reported inhibition at 1 µM
readout: inhibition at 1 µM (%)

molecule | targetSystem | unitLabel | observedMeasurement
O=C1CSCc2ccccc2N1CCCCN1CCN(c2cccc(Cl)c2)CC1 [STG191] | sigma 1 (h) (Homo sapiens, UniProt Q99720) | % | 98.5
O=C1CCCc2ccccc2N1CCCCN1CCN(c2ccc(Cl)cc2)CC1 [STG188] | sigma 1 (h) (Homo sapiens, UniProt Q99720) | % | 99.2
O=C1CCCc2ccccc2N1CCCCN1CCN(c2ccccc2Cl)CC1 [STG158] | sigma 1 (h) (Homo sapiens, UniProt Q99720) | % | 93.8
O=C1COCc2ccccc2N1CCCCN1CCC2(CC1)OCc1ccccc12 [STG135] | sigma 1 (h) (Homo sapiens, UniProt Q99720) | % | 94.5
O=C1CSCc2ccccc2N1CCCCN1CCN(c2ccc(Cl)cc2)CC1 [STG190] | sigma 1 (h) (Homo sapiens, UniProt Q99720) | % | 101
O=C1CSCc2ccccc2N1CCCCN1CCN(c2ccccc2Cl)CC1 [STG192] | sigma 1 (h) (Homo sapiens, UniProt Q99720) | % | 53.2
O=C1COCc2ccccc2N1CCCCN1CCN(c2ccc(Cl)cc2)CC1 [STG189] | sigma 1 (h) (Homo sapiens, UniProt Q99720) | % | 93.6
O=C1CCCc2ccccc2N1CCCCN1CCN(c2cccc(Cl)c2)CC1 [SMB107] | sigma 1 (h) (Homo sapiens, UniProt Q99720) | % | 97.6
O=C1CCCc2ccccc2N1CCCCN1CCC2(CC1)OCc1ccccc12 [STG136] | sigma 1 (h) (Homo sapiens, UniProt Q99720) | % | 98.4
